# protocol: Encapsulation efficiency of lipid nanoparticles, Quant-it Ribogreen RNA quantification assay
# Type: physicochemical
# run.parameters: LNP with mRNA

{"columns": ["compound", "Encapsulation Efficiency, %"],
 "data": [
  ["CCCCCCCCCCC(=O)OCC(CCCCN(CCO)C1CCC1)COC(=O)CC(CCCCCC)CCCCCCCC (stereo not shown) [Compound 81]", 88.28],
  ["CCCCCCCCCCC(=O)OCC(CCCCN(CCO)C1CCCCCCC1)COC(=O)CC(CCCCCC)CCCCCCCC (stereo not shown) [Compound 93]", 85.30],
  ["CCCCCCCCC(CCCCCCCC)COC(=O)CCOCC(CN(C)CCN(CCO)C1CCCCC1)OCCC(=O)OCC(CCCCCCCC)CCCCCCCC (stereo not shown) [Compound 72]", 95.22],
  ["CCCCCCCCCCCCOCC(CN(C)CCO)OC(=O)CCCCCCCCCCC (stereo not shown) [Compound 41]", 83.5],
  ["CCCCCCC(CCCCCC)COC(=O)CCCCCN(CCN1CCC(O)C1)CC(COC(=O)CCCCC)OC(=O)CCCCC (stereo not shown) [Compound 59]", 96.1],
  ["CCCCCCCCCCCCOCC(CN(CCO)CCCCCC(=O)OCC(CCCCCC)CCCCCCCC)OC(C)=O (stereo not shown) [Compound 18]", 90.6],
  ["CCCCCCCCC(CCCCCCCC)CC(=O)OCC(CCCCN(CC)CCN(CCO)C1CCC1)COC(=O)CC(CCCCCCCC)CCCCCCCC [Compound 67]", 91.83],
  ["CCCCCCCCCCCCOCC(CN(CCCCCC(=O)OCC(CCCCCC)CCCCCCCC)CCN(CCO)C1CCCCC1)OCCCCCCCCCCCC (stereo not shown) [Compound 30]", 92.7],
  ["CCCCCCCCCCC(=O)OCC(CCCCN(CCN(CCO)C1CCC1)C1CCC1)COC(=O)CC(CCCCCC)CCCCCCCC (stereo not shown) [Compound 82]", 92.38],
  ["CCCCCCCCCCCCOCC(CN(CCO)CCCCCC(=O)OCC(CCCCCC)CCCCCCCC)OC(=O)CC (stereo not shown) [Compound 19]", 88.5],
  ["CCCCCCCCC(CCCCCCCC)COC(=O)CCOCC(CN(C)CCN(CCO)C1CCCCCCC1)OCCC(=O)OCC(CCCCCCCC)CCCCCCCC (stereo not shown) [Compound 74]", 93.97],
  ["CCCCCCCCC(CCCCCC)CC(=O)OCC(CCCCN(CCN(CCC)CCO)C1CCC1)COC(=O)CC(CCCCCC)CCCCCCCC (stereo not shown) [Compound 80]", 92.20],
  ["CCCCCCCCC(CCCCCCCC)CNC(=O)CCOCC(CN(C)CCN(CCO)C1CCCCC1)OCCC(=O)NCC(CCCCCCCC)CCCCCCCC (stereo not shown) [Compound 52]", 96.5],
  ["CCCCCCCCC(CCCCCCCC)CNC(=O)CCOC(COCCC(=O)OCC(CCCCCCCC)CCCCCCCC)CN(C)CCN(CCO)C1CCC1 (stereo not shown) [Compound 61]", 96.2],
  ["CCCCCCCCCCCCCCCC(=O)OCC(CCCCN(CCO)C1CCCCCC1)COC(=O)CC(CCCCCC)CCCCCCCC (stereo not shown) [Compound 87]", 92.47],
  ["CCCCCCC(CCCCCC)COC(=O)CCCCCN(CCN1CCC(O)C1)CC(COC(=O)CCCCC)OC(=O)CCCCC (stereo not shown) [Compound 63]", 95.9],
  ["CCCCCCCCC(CCCCCC)CC(=O)OCC(CCCCN(CCO)C1CCCCC1)COC(=O)CC(CCCCCC)CCCCCCCC (stereo not shown) [Compound 68]", 89.42],
  ["CCCCCCCCCCCCOCC(O)CN(CCCCCC(=O)OCC(CCCCCC)CCCCCCCC)CCN(CC)CC (stereo not shown) [Compound 11]", 82.2],
  ["CCCCCCCCC(CCCCCC)CC(=O)OCC(CCCCN(CCN(CCO)C1CCC1)C1CCC1)COC(=O)CC(CCCCCC)CCCCCCCC (stereo not shown) [Compound 79]", 91.29],
  ["CCCCCCCCC(CCCCCC)CC(=O)OCC(CCCCN(CCN(CCO)CCCC)C1CCC1)COC(=O)CC(CCCCCC)CCCCCCCC (stereo not shown) [Compound 109]", 92.59],
  ["CCCCCCCCCCCCOCC(CN(CCCCCC(=O)OCC(CCCCCC)CCCCCCCC)CCN(CCO)C1CC1)OCCCCCC (stereo not shown) [Compound 22]", 83.5],
  ["CCCCCCCCCCCCOCC(CN(CCCCCC(=O)OCC(CCCCCC)CCCCCCCC)CCN(CCO)C1CCC1)OCCCCCC (stereo not shown) [Compound 23]", 88.5],
  ["CCCCCCCCC(CCCCCCCC)COC(=O)CCOCC(CN(C)CCN(CCO)C1CCCC1)OCCC(=O)OCC(CCCCCCCC)CCCCCCCC (stereo not shown) [Compound 71]", 94.62],
  ["CCCCCCCCCCCCCCCC(=O)OCC(CCCCN(CCO)C1CCC1)COC(=O)CC(CCCCCC)CCCCCCCC (stereo not shown) [Compound 98]", 93.58],
  ["CCCCCCCCCCCCCCCCOCC(CN(CCCCCC(=O)OCCCCCCCCCC)CCN(CCO)C1CCC1)OCCCCCC (stereo not shown) [Compound 53]", 89.79],
  ["CCCCCCCCCCCCOCC(O)CN(CCCCCC(=O)OCC(CCCCCC)CCCCCCCC)CCN1CCCC1 (stereo not shown) [Compound 10]", 94.8],
  ["CCCCCCCCCCCC(=O)OCC(CN(CCCCCC(=O)OCC(CCCCCC)CCCCCC)CCN1CCC(O)C1)OC(=O)CCCCC (stereo not shown) [Compound 62]", 94.1],
  ["CCCCCCCCCCCCOCC(CN(CCCCCC(=O)OCC(CCCCCC)CCCCCCCC)CCN(CCO)C1CCCCCC1)OCCCCCCCCCCCC (stereo not shown) [Compound 31]", 80.1]
]}
